Biological target: human V1a receptor (Homo sapiens (Human))
Assay: Cellular in vitro assay for determining vasopressin receptor activity (V1a, aequorin luminescence)
Type: cell-based
Conditions: selectivity, IC50 hV2 divided by IC50 hV1a
Method: B-1. Cellular In Vitro Assay for Determining Vasopressin Receptor Activity The identification of agonists and antagonists of the V1a and V2 vasopressin receptors from humans, rats and dogs as well as the quantification of the activity of the compounds of the invention is carried out using recombinant cell lines. […] The bioluminescence of the cell lines is detected using a suitable luminometer [Milligan G, Marshall F, Rees S, Trends in Pharmacological Sciences 17, 235-237 (1996)]. […]
Reported ratio IC50 hV2/hV1a values are given for each entry in this list.

Compound | ratio IC50 hV2/hV1a
O=C(CCC(F)(F)F)NC(Cn1c(-c2ccc(Cl)cc2)nn(Cc2ncn(-c3ncccc3C(F)(F)F)n2)c1=O)C(F)(F)F (racemic) [Example 59] | 39.5
O=C(NC(Cn1c(-c2ccc(Cl)cc2)nn(Cc2ncn(-c3ncccc3Cl)n2)c1=O)C(F)(F)F)C1CCN1 (stereo not drawn) [Example 57] | 62.8
O=C(NC(Cn1c(-c2ccc(Cl)cc2)nn(Cc2ncn(-c3ncccc3Cl)n2)c1=O)C(F)(F)F)C1CCO1 (stereo not drawn) [Example 3] | 108.5

====

target: human V1a receptor (Homo sapiens (Human), UniProt P37288); experiment: Cellular in vitro assay for determining vasopressin receptor activity (V1a, aequorin luminescence); assay type: cell-based; settings: selectivity, IC50 hV2 divided by IC50 hV1a
Sequence (P37288 whole entry): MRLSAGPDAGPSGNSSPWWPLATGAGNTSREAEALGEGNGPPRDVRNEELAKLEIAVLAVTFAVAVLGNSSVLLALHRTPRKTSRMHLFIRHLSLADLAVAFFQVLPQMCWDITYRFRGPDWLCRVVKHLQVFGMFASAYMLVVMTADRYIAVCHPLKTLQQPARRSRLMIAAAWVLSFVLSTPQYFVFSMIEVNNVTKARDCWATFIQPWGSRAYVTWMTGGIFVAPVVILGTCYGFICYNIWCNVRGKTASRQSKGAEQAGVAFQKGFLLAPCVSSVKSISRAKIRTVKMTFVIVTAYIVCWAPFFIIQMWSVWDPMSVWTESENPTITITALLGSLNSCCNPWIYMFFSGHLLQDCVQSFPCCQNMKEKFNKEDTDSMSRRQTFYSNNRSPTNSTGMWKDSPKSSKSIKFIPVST
Measurement Type: ratio IC50 hV2/hV1a

Compound | System | Reported Result
O=C(CCC(F)(F)F)NC(Cn1c(-c2ccc(Cl)cc2)nn(Cc2ncn(-c3ncccc3Cl)n2)c1=O)C(F)(F)F (racemic) [Example 32] | human V1a receptor (Homo sapiens (Human), UniProt P37288) | 67.0
CS(=O)(=O)CC(=O)NC(Cn1c(-c2ccc(Cl)cc2)nn(Cc2ncn(-c3ncccc3Cl)n2)c1=O)C(F)(F)F (racemic) [Example 44] | human V1a receptor (Homo sapiens (Human), UniProt P37288) | 68.6
O=C(NC(Cn1c(-c2ccc(Cl)cc2)nn(Cc2ncn(-c3ncccc3Cl)n2)c1=O)C(F)(F)F)C1(C(F)(F)F)CC1 (racemic) [Example 41] | human V1a receptor (Homo sapiens (Human), UniProt P37288) | 38.0
CS(=O)(=O)NCC(=O)NC(Cn1c(-c2ccc(Cl)cc2)nn(Cc2ncn(-c3ncccc3Cl)n2)c1=O)C(F)(F)F (racemic) | human V1a receptor (Homo sapiens (Human), UniProt P37288) | 46.1
O=C1NCCC1C(=O)NC(Cn1c(-c2ccc(Cl)cc2)nn(Cc2ncn(-c3ncccc3Cl)n2)c1=O)C(F)(F)F (stereo not shown) | human V1a receptor (Homo sapiens (Human), UniProt P37288) | 57.6
O=C(NC(Cn1c(-c2ccc(Cl)cc2)nn(Cc2ncn(-c3ncccc3Cl)n2)c1=O)C(F)(F)F)C1CC(F)(F)C1 (racemic) | human V1a receptor (Homo sapiens (Human), UniProt P37288) | 38.3
CS(=O)(=O)CC(=O)NC(Cn1c(-c2ccc(Cl)cc2)nn(Cc2ncn(-c3ncccc3Cl)n2)c1=O)C(F)(F)F (racemic) [Example 45] | human V1a receptor (Homo sapiens (Human), UniProt P37288) | 9.8
O=C(NC(Cn1c(-c2ccc(Cl)cc2)nn(Cc2ncn(-c3ncccc3Cl)n2)c1=O)C(F)(F)F)C1CS(=O)(=O)C1 (racemic) [Example 38] | human V1a receptor (Homo sapiens (Human), UniProt P37288) | 28.2
N#CC1(C(=O)NC(Cn2c(-c3ccc(Cl)cc3)nn(Cc3ncn(-c4ncccc4C(F)(F)F)n3)c2=O)C(F)(F)F)CC1 (racemic) | human V1a receptor (Homo sapiens (Human), UniProt P37288) | 53.8
O=C(CF)NC(Cn1c(-c2ccc(Cl)cc2)nn(Cc2ncn(-c3ncccc3Cl)n2)c1=O)C(F)(F)F (racemic) | human V1a receptor (Homo sapiens (Human), UniProt P37288) | 51.8
O=C(CCC(F)(F)F)NC(Cn1c(-c2ccc(Cl)cc2)nn(Cc2ncn(-c3ncccc3Cl)n2)c1=O)C(F)(F)F (racemic) [Example 33] | human V1a receptor (Homo sapiens (Human), UniProt P37288) | 26.1
O=C(NC(Cn1c(-c2ccc(Cl)cc2)nn(Cc2ncn(-c3ncccc3Cl)n2)c1=O)C(F)(F)F)C1CCS(=O)(=O)C1 (stereo not shown) | human V1a receptor (Homo sapiens (Human), UniProt P37288) | 33.9
O=C(CCC(F)(F)F)NC(Cn1c(-c2ccc(Cl)cc2)nn(Cc2ncn(-c3ncccc3Cl)n2)c1=O)C(F)(F)F (racemic) [Example 34] | human V1a receptor (Homo sapiens (Human), UniProt P37288) | 40.9
O=C(NC(Cn1c(-c2ccc(Cl)cc2)nn(Cc2ncn(-c3ncccc3Cl)n2)c1=O)C(F)(F)F)C1CC1C(F)(F)F (stereo not shown) | human V1a receptor (Homo sapiens (Human), UniProt P37288) | 13.4
CC(C)(O)C(=O)NC(Cn1c(-c2ccc(Cl)cc2)nn(Cc2ncn(-c3ncccc3Cl)n2)c1=O)C(F)(F)F (racemic) | human V1a receptor (Homo sapiens (Human), UniProt P37288) | 29.3
O=C1CC[C@@H](C(=O)NC(Cn2c(-c3ccc(Cl)cc3)nn(Cc3ncn(-c4ncccc4Cl)n3)c2=O)C(F)(F)F)N1 (single isomer, unassigned) [Example 37] | human V1a receptor (Homo sapiens (Human), UniProt P37288) | 108.5
O=C(NC(Cn1c(-c2ccc(Cl)cc2)nn(Cc2ncn(-c3ncccc3Cl)n2)c1=O)C(F)(F)F)C1CC1F (stereo not shown) | human V1a receptor (Homo sapiens (Human), UniProt P37288) | 24.9
O=C(NC(Cn1c(-c2ccc(Cl)cc2)nn(Cc2ncn(-c3ncccc3Cl)n2)c1=O)C(F)(F)F)C1CS(=O)(=O)C1 (racemic) [Example 40] | human V1a receptor (Homo sapiens (Human), UniProt P37288) | 26.7
O=C(NC(Cn1c(-c2ccc(Cl)cc2)nn(Cc2ncn(-c3ncccc3Cl)n2)c1=O)C(F)(F)F)C1CC(F)(F)CN1 (stereo not shown) | human V1a receptor (Homo sapiens (Human), UniProt P37288) | 23.8
O=C(CC(F)(F)F)NC(Cn1c(-c2ccc(Cl)cc2)nn(Cc2ncn(-c3ncccc3C(F)(F)F)n2)c1=O)C(F)(F)F (racemic) | human V1a receptor (Homo sapiens (Human), UniProt P37288) | 49.6
CS(=O)(=O)CC(=O)NC(Cn1c(-c2ccc(Cl)cc2)nn(Cc2ncn(-c3ncccc3Cl)n2)c1=O)C(F)(F)F (racemic) [Example 46] | human V1a receptor (Homo sapiens (Human), UniProt P37288) | 42.8
O=C(/C=C/C(F)(F)F)NC(Cn1c(-c2ccc(Cl)cc2)nn(Cc2ncn(-c3ncccc3Cl)n2)c1=O)C(F)(F)F (racemic) | human V1a receptor (Homo sapiens (Human), UniProt P37288) | 98.6
O=C(NC(Cn1c(-c2ccc(Cl)cc2)nn(Cc2ncn(-c3ncccc3Cl)n2)c1=O)C(F)(F)F)C1CCNC1 (stereo not shown) | human V1a receptor (Homo sapiens (Human), UniProt P37288) | 160.8
CC(F)(F)C(=O)NC(Cn1c(-c2ccc(Cl)cc2)nn(Cc2ncn(-c3ncccc3Cl)n2)c1=O)C(F)(F)F (racemic) | human V1a receptor (Homo sapiens (Human), UniProt P37288) | 66.0
O=C(NC(Cn1c(-c2ccc(Cl)cc2)nn(Cc2ncn(-c3ncccc3C(F)(F)F)n2)c1=O)C(F)(F)F)C1CC1(F)F (stereo not shown) | human V1a receptor (Homo sapiens (Human), UniProt P37288) | 45.4

====

target: UniProt P30518; test: Cellular in vitro assay for determining vasopressin receptor activity (V2, CRE-luciferase); conditions: CHO cell line transfected with human V2 receptor; [Arg8]-vasopressin at EC50 concentration; read-out: IC50 hV2
Sequence (P30518 whole entry): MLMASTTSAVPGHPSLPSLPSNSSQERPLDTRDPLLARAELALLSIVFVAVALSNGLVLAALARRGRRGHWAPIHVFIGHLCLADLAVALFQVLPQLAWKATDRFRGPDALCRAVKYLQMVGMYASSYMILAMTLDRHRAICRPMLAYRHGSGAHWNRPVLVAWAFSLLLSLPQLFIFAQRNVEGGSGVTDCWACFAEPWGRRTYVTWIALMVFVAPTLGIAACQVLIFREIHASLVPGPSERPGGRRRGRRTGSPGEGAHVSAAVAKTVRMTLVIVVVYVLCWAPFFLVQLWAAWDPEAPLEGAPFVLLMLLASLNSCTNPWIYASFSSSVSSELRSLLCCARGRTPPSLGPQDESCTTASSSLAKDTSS

Compound | IC50, µM
CC(C)(C)OC(=O)NC1(C(=O)NC(Cn2c(-c3ccc(Cl)cc3)nn(Cc3ncn(-c4ncccc4Cl)n3)c2=O)C(F)(F)F)CCC1 (stereo not drawn) [Example 28] | 0.0225
COCC(=O)NC(Cn1c(-c2ccc(Cl)cc2)nn(Cc2ncn(-c3ncccc3C(F)(F)F)n2)c1=O)C(F)(F)F (racemic) [Example 68] | 0.53
O=C(NC(Cn1c(-c2ccc(Cl)cc2)nn(Cc2ncn(-c3ncccc3C(F)(F)F)n2)c1=O)C(F)(F)F)C1CC(F)(F)C1 (racemic) [Example 63] | 0.0588
Cl.O=C(NC(Cn1c(-c2ccc(Cl)cc2)nn(Cc2ncn(-c3ncccc3C(F)(F)F)n2)c1=O)C(F)(F)F)[C@@H]1C[C@@H](F)CN1 (stereo partly drawn) [Example 70] | 0.445
CS(=O)(=O)NCC(=O)NC(Cn1c(-c2ccc(Cl)cc2)nn(Cc2ncn(-c3ncccc3Cl)n2)c1=O)C(F)(F)F (racemic) [Example 19] | 0.102
O=C(NC(Cn1c(-c2ccc(Cl)cc2)nn(Cc2ncn(-c3ncccc3Cl)n2)c1=O)C(F)(F)F)C1CS(=O)(=O)C1 (racemic) [Example 38] | 0.048
Cl.O=C(NC(Cn1c(-c2ccc(Cl)cc2)nn(Cc2ncn(-c3ncccc3C(F)(F)F)n2)c1=O)C(F)(F)F)C1NCC1(F)F (stereo not drawn) [Example 69] | 0.101
O=C1CC[C@@H](C(=O)NC(Cn2c(-c3ccc(Cl)cc3)nn(Cc3ncn(-c4ncccc4Cl)n3)c2=O)C(F)(F)F)N1 (single isomer, unassigned) [Example 36] | 0.89
O=C(NC(Cn1c(-c2ccc(Cl)cc2)nn(Cc2ncn(-c3ncccc3Cl)n2)c1=O)C(F)(F)F)C1(O)CC1 (racemic) [Example 22] | 0.15
COCC(=O)NC(Cn1c(-c2ccc(Cl)cc2)nn(Cc2ncn(-c3ncccc3Cl)n2)c1=O)C(F)(F)F (racemic) [Example 6] | 0.63
O=C(NC(Cn1c(-c2ccc(Cl)cc2)nn(Cc2ncn(-c3ncccc3Cl)n2)c1=O)C(F)(F)F)[C@@H]1C[C@@H](F)CN1 (mixture of isomers) [Example 49] | 0.378
O=C(/C=C/C(F)(F)F)NC(Cn1c(-c2ccc(Cl)cc2)nn(Cc2ncn(-c3ncccc3Cl)n2)c1=O)C(F)(F)F (racemic) [Example 25] | 0.172
